Reference source: the supplement of paper PMC13380429

Tested on: U2OS
Assay: cell viability relative to DMSO; higher = less toxic
Settings: 72 h; 1000 nM
parameter_measured: cell viability (%)
Give just the numeric value; % need not be written.

Check U2OS data and give cell viability for O=C(O)Cc1sc(-c2ccccc2)nc1-c1ccc(Cl)cc1 [fentiazac] . 93.9

Check U2OS data and give cell viability for O=S(=O)(N[C@H](CO)C(C(F)(F)F)C(F)(F)F)c1ccc(Cl)s1 [begacestat] . 89.7

Check U2OS data and give cell viability for COC(=O)C1=C(C)NC(C)=C(C(=O)OC(C)C)[C@@H]1c1cccc2nonc12 [isradipine] . 102

Check U2OS data and give cell viability for O=C(C[S+]([O-])C(c1ccccc1)c1ccccc1)NO (stereo not given) [adrafinil] . 107

Check U2OS data and give cell viability for CNC(=O)c1ccc(N2C(=S)N(c3cnc(C#N)c(C(F)(F)F)c3)C(=O)C23CCC3)cc1F [apalutamide] . 97.7
